- System: HaCat
- TEST_NAME: Cytotoxic Profiling of Annotated Libraries Using Quantitative High-Throughput Screening (AID 1296008); also: nearly all actives have a fitted effect of over 60% in size; also: potency is read from the fitted curve at half-maximal effect
- STATED_CONDITIONS: Five cell lines viability, CellTiter-Glo ATP luminescence, 48-72 h
Records with an inconclusive call do not appear. Activity calls are given as the source filed them. Calls follow the shape of the dose curve; as a rule, active = well fitted inhibition curve with a large enough effect; inconclusive = small, poorly fitted or top-dose-only effect; inactive = flat fitted curve, though single readings scatter. Where a SMILES comes first, the peptide text is derived from it. [ ]: non-standard residue; d: D form. The star is where a group is joined. Dolaproine = CO[C@@H]([C@@H]1CCCN1)[C@@H](C)C(=O)O; Dil = CC[C@H](C)[C@H](NC)[C@@H](CC(=O)O)OC; Doe = c1ccc(C[C@H](N*)c2nccs2)cc1; Aib = CC(C)(N)C(=O)O
REPORTED_PROPERTY: Potency

A selection of reference data follows.
C[C@@H]1[C@H](O)[C@@H](C)/C=C/C=C/CC/C=C/C=C/C=C/C=C/[C@H](O[C@H]2O[C@@H](C)[C@H](O)[C@@H](N)[C@H]2O)C[C@@H]2O[C@](O)(C[C@@H](O)[C@H](O)CC[C@@H](O)C[C@@H](O)C[C@@H](O)CC(=O)O[C@H]1C)C[C@H](O)[C@H]2C(=O)O	inactive
CO[C@H]1[C@@H](O)[C@@H](C)O[C@@H](O[C@@H]2C=C3C(OC(C)=O)CC4(O)C(CC[C@]5(C)[C@@H](C6=CC(=O)OC6)CC[C@]45O)[C@@]3(C)CC2)[C@@H]1O (some centres not stated)	2.43 µM (active)
N#Cc1cn([C@@H]2O[C@H](CO)[C@H](O)[C@@H]2O)c2ncnc(N)c12	0.092 µM (active)
CC1=CC(=O)[C@@H](O)[C@]2(C)C3[C@@H](O)[C@@H]4OC(=O)[C@@H]([C@H]4C)[C@]3(C)C(=O)C[C@@H]12 (some centres not stated)	11.4 µM (active)
O=C1Nc2ccc3ncsc3c2/C1=C/c1cnc[nH]1	4.11 µM (active)

Need Potency of COC1CC(O[C@H]2CC[C@]3(C)C4CC[C@]5(C)[C@@H](C6=CC(=O)OC6)[C@@H](OC(C)=O)C[C@]5(O)C4CC[C@@H]3C2)OC(C)C1O (some centres not stated) , thanks.
0.796 µM (active)

Could you tell me which Potency is on file for CC1=CC2OC3[C@H](O)C[C@@](C)([C@]34CO4)[C@@]2(CO)[C@H](O)C1=O (some centres not stated) ?
14.6 µM (active)

// returns reported Potency for input CC1=C[C@H]2O[C@@H]3[C@H](O)[C@@H](O)[C@](C)([C@@]2(CO)C[C@@H]1O)[C@]31CO1
7.31 µM (active)

What does the data say about its Potency? Entry: CCCCOC(=O)c1ccnc2cc(C(OCCN3CCCCC3)c3ccccc3Cl)sc12 (configuration not stated)
inactive

Fill blank: measured Potency of the compound C=C1[C@@H](C)[C@H]2[C@H](Cc3ccccc3)NC(=O)[C@]23[C@H](OC(C)=O)/C=C/[C@](C)(O)C(=O)[C@@H](C)C/C=C/[C@H]3[C@@H]1O is ____.
23.1 µM (active)

Given C/C=C1/CN2CC[C@]34C(=Nc5ccc(OC)cc53)C2C[C@@H]1C4(CO)C(=O)OC (some centres not stated) , state its recorded Potency.
inactive

Give the measured Potency of C/C=C(\C)C(=O)OC1CC2C(CC=C3CC(OC4CC(OC)C(OC5CC(OC)C(OC6CC(OC)C(OC7CC(OC)C(O)C(C)O7)C(C)O6)C(C)O5)C(C)O4)CCC32C)C2(O)CCC(C(C)=O)C12C (configuration not stated) .
inactive

Consider the compound shown here: COC1CC(O[C@H]2CC[C@@]3(C)C(CCC4C3CC[C@]3(C)[C@@H](C5=CC(=O)OC5)CC[C@]43O)C2)OC(C)C1O (some centres not stated) What is its recorded Potency?
0.178 µM (active)

Find the recorded Potency belonging to C=CC/C=C\C/C=C\CCCCCCCc1cc(O)cc(O)c1 and report it.
inactive

Query: Potency; subject: CC[C@H]1C[C@@H]2CC[C@@H](O2)[C@@H](C)C(=O)O[C@H](CC)C[C@H]2CC[C@H](O2)[C@H](C)C(=O)O[C@@H](C)C[C@@H]2CC[C@@H](O2)[C@@H](C)C(=O)O[C@H](CC)C[C@H]2CC[C@H](O2)[C@H](C)C(=O)O1
0.0685 µM (active)

// query Potency value for entry CC[C@H](C)[C@@H]([C@@H](CC(=O)N1CCC[C@H]1[C@H](OC)[C@@H](C)C(=O)N[C@@H](Cc1ccccc1)c1nccs1)OC)N(C)C(=O)[C@@H](NC(=O)C(C)(C)N)C(C)C (H-[Aib]V[Dil][Dolaproine]-Doe)
inactive

What does the record list as Potency for CN1CCc2cc3c(cc2[C@H]1[C@@H]1OC(=O)c2c1ccc1c2OCO1)OCO3 ?
inactive
